biological target: TOP^-TrpW390/L215pNF (Rattus norvegicus, UniProt P24155, L215F/W124F/W335F/W511F/W513F/W614F); assay: Inhibition constant of JA-2, continuous assay with QFS, TOP^-TrpW390/L215pNF; conditions: substrate QFS, 37 °C, 50 mM Tris-HCl pH 7.4, 100 mM NaCl, 0.5 mM DTT
Sequence (P24155 whole entry W124F/L215F/W335F/W511F/W513F/W614F): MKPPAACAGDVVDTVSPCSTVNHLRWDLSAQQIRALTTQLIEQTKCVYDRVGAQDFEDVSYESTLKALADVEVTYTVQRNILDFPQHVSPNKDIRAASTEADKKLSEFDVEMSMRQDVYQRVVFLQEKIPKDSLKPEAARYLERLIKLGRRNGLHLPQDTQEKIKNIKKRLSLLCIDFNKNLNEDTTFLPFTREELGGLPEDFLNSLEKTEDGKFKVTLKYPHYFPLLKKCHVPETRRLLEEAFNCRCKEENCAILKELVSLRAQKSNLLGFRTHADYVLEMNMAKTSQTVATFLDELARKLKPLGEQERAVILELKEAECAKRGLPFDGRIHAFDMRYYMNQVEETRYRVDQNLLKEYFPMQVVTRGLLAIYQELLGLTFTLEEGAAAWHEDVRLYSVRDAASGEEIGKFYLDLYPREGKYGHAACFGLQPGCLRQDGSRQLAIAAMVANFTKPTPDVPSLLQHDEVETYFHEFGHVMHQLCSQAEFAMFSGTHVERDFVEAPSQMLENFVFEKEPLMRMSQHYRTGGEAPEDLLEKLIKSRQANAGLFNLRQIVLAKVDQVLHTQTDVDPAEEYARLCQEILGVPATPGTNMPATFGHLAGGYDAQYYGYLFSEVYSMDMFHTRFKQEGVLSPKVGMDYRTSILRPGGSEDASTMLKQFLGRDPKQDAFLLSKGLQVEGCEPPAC
property.label: pKi
// field semantics: pKi = negative decimal log of concentration (mol/L)

Qu. For the compound C[C@H](NC(CCc1ccccc1)C(=O)O)C(=O)NC(C)(C)C(=O)N[C@@H](Cc1ccc(O)cc1)C(=O)Nc1ccc(C(=O)O)cc1 (stereo partly shown) [JA-2] , what pKi is on record?
Ans. 6.06

---

target: WT TOP (Rattus norvegicus, UniProt P24155)
Sequence (P24155 whole entry): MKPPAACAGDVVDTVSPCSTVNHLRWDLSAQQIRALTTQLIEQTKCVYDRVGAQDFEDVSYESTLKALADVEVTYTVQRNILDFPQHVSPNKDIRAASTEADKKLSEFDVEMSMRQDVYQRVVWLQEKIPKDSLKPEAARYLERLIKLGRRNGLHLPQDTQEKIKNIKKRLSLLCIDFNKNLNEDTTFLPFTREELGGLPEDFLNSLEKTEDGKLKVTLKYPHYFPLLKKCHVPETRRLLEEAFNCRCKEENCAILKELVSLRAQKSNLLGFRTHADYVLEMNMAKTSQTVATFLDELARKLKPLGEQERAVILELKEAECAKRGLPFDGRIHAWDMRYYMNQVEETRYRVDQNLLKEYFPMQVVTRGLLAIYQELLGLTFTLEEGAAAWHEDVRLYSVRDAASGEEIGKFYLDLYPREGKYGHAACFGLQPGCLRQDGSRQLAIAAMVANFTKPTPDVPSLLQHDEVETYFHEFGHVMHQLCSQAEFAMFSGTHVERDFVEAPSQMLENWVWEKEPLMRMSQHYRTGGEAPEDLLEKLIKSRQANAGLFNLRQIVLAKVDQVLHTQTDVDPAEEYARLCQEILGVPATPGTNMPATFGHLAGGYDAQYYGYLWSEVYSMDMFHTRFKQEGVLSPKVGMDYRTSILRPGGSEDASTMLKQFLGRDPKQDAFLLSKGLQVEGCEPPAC
property.label: pKi
// scale note: pKi = -log10(conc_M); give the bare number

Qu. Any idea what its pKi is? The molecule is C[C@H](NC(CCc1ccccc1)C(=O)O)C(=O)NC(C)(C)C(=O)N[C@@H](Cc1ccc(O)cc1)C(=O)Nc1ccc(C(=O)O)cc1 (stereo partly shown) [JA-2]
Ans. 7.49

---

molecular target: TOP^-TrpW390/F178pNF (Rattus norvegicus, UniProt P24155, W124F/W335F/W511F/W513F/W614F); assay: Inhibition constant of JA-2, continuous assay with QFS, TOP^-TrpW390/F178pNF; conditions: substrate QFS, 37 °C, 50 mM Tris-HCl pH 7.4, 100 mM NaCl, 0.5 mM DTT
Sequence (P24155 whole entry W124F/W335F/W511F/W513F/W614F): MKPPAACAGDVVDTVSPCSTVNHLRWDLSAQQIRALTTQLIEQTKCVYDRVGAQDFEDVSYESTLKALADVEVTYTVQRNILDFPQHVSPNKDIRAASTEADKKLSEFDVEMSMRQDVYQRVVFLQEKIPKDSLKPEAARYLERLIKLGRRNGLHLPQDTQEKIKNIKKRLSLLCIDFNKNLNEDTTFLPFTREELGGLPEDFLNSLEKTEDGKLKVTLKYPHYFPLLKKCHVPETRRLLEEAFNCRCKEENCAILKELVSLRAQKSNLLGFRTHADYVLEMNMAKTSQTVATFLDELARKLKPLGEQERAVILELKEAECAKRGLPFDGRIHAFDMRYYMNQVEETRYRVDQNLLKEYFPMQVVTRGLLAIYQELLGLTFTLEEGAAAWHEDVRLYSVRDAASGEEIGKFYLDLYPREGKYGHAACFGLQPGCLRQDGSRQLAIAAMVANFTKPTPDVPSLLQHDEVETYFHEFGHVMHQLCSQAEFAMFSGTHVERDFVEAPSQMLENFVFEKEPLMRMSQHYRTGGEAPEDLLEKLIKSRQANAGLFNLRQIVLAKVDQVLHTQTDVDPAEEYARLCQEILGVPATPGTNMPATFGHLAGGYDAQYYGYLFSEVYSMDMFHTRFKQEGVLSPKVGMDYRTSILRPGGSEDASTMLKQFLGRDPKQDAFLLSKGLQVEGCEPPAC
property.label: Ki

Qu. Find the recorded Ki belonging to C[C@H](NC(CCc1ccccc1)C(=O)O)C(=O)NC(C)(C)C(=O)N[C@@H](Cc1ccc(O)cc1)C(=O)Nc1ccc(C(=O)O)cc1 (stereo partly shown) [JA-2] and report it.
Ans. 1.23 µM
